Molecular target: T1, recombinant human RANKL (soluble, Gly136-Asp317, N-terminal 10 His, expressed in CHO cells) (human, UniProt O14788 136-317)
T1 construct: residues between secretion signal and His tag are not described; also called hRANKL; hRNAKL
T1 sequence: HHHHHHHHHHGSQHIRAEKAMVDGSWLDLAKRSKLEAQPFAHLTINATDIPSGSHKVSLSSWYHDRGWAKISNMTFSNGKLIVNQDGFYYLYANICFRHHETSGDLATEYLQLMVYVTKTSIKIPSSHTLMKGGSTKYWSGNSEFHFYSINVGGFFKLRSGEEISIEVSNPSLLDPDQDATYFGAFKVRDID
Assay: competitive ELISA, RANK-Fc coated, antibody pre-incubated with 0.25 µg/ml hRANKL; Plate#02
Reported Metric: IC50 (µg/mL)
Number only, in µg/mL; omit the unit.

Examples from the recorded data:
binder="G11 (antibody, human IgG2, kappa, V domains shown, 293F cells) VH: QVQLVQSGAELKKPGASVKLSCKASGYTFTTYWLQWVRQAPGQGLEWMGAIYPGPGNTKYTQKFKDRFTITADTSKSTAYMQLNSLKSEDSAVYYCARRGSRRGIAYWGQGTLVTVSA VL: NIVLTQSPASLSVSLGQRATISCRASESVDSYGRSFMHWYQQKPGQAPKLLIYLASNLESGVPSRFSGSGSRTDFTLTISAVEAEDAATYYCQQDNEDPYTFGGGTKLEIKG" measurement_units=µg/mL reported_result=0.19
binder="G12 (antibody, human IgG2, kappa, V domains shown, 293F cells) VH: QVQLVQSGAELKKPGASVKLSCKASGYTFTTYWLQWVRQAPGQGLEWMGAIYPGPGNTKYTQKFKDRFTITADTSKSTAYMQLNSLKSEDSAVYYCARRGSRRGIAYWGQGTLVTVSA VL: NIVLTQSPASLSVSLGQRATISCRASESVDSYGRSFMHWYQQRPGQAPKLLIYLASNLESGVPARFSGSGSRTDFTLTISSVEAEDEATYYCQQDNEDPYTFGGGTKLEIKG" measurement_units=µg/mL reported_result=0.36
binder="G8 (antibody, human IgG2, kappa, V domains shown) VH: QVQLVQSGAELVQPGASVKLSCKASGYTFTTYWLQWVRQTPGQGLEWMGAIYPGPGNTKYTQKFKDRVTITADTSTSTAYMQLNSLRSEDSAVYYCARRGSRRGIAYWGQGTLVTVSA VL: NIVLTQSPASLSVSLGQRATISCRASESVDSYGRSFMHWYQQRPGQAPKLLIYLASNLESGVPARFSGSGSRTDFTLTISSVEAEDEATYYCQQDNEDPYTFGGGTKLEIKG" measurement_units=µg/mL reported_result=0.38
binder="G9 (antibody, human IgG2, kappa, V domains shown, 293F cells) VH: QVQLVQSGAELVQPGASVKLSCKASGYTFTTYWLQWVRQTPGQGLEWMGAIYPGPGNTKYTQKFKDRVTITADTSTSTAYMQLNSLRSEDSAVYYCARRGSRRGIAYWGQGTLVTVSA VL: NIVLTQSPASLSVSLGQRATISCRASESVDSYGRSFMHWYQQKPGQAPKLLIYLASNLESGVPSRFSGSGSRTDFTLTISRVEAEDAATYYCQQDNEDPYTFGGGTKLEIKG" measurement_units=µg/mL reported_result=0.5

Look up IC50 for this binder: G10 (antibody, human IgG2, kappa, V domains shown, 293F cells) VH: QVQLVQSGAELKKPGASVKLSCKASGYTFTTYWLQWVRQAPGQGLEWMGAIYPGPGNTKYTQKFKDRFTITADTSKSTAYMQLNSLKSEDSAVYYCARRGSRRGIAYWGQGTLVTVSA VL: NIVLTQSPASLSVSLGQRATISCRASESVDSYGRSFMHWYQQRPGQAPRLLIYLASNLESGVPARFSGSGSRTDFTLTISSVEAEDEATYYCQQDNEDPYTFGGGTKLEIKG
0.4
